Where do these numbers come from? They come from patent US20230122911A1.

- method: Solubility test with polymers (Example 24)
- test.parameters: USP phosphate buffer (pH 6.8), pH 6.8, aqueous buffer, kinetic from dmso stock, with copolyvidone, after 5 min
observation.type: solubility at 5 min
Give me the value, and tack the unit on after it.

Lab book: solubility at 5 min of CNC(=O)c1ccc(N2C(=S)N(c3ccc(C#N)c(C(F)(F)F)c3)C(=O)C2(C)C)cc1F [enzalutamide] noted as 47.4 µg/mL

###

- method: Solubility test with polymers (Example 24)
- test.parameters: USP phosphate buffer (pH 6.8), pH 6.8, aqueous buffer, kinetic from dmso stock, with hydroxypropylmethylcellulose 2910 (TC-5R), after 5 min
observation.type: solubility at 5 min (µg/mL)
Write down the numeric answer in µg/mL and omit the unit.

For record CNC(=O)c1ccc(N2C(=S)N(c3ccc(C#N)c(C(F)(F)F)c3)C(=O)C2(C)C)cc1F [enzalutamide] the listed solubility at 5 min is 39.2

###

- method: Solubility test with polymers (Example 24)
- test.parameters: USP phosphate buffer (pH 6.8), pH 6.8, aqueous buffer, kinetic from dmso stock, with polyvinylpyrrolidone, after 5 min
observation.type: solubility at 5 min (mg/mL)
Give a bare numeral; the unit mg/mL is implied.

response.value for CNC(=O)c1ccc(N2C(=S)N(c3ccc(C#N)c(C(F)(F)F)c3)C(=O)C2(C)C)cc1F [enzalutamide] (field: solubility at 5 min) = 0.0401
